Data provenance: PubChem BioAssay (NCI)

Would you kindly list TGI for each of these compounds?
Tested on: SK-OV-3 ovarian
experimental.details: NCI tumour cell line growth inhibition, 48 h

O=C(Cc1ccccc1)NC(c1ccc(Cl)cc1)c1c(O)ccc2ccccc12 (stereo unspecified)    9.26 µM
CC(C)(C)OC(=O)CC(NC(=O)OC(C)(C)C)C(=O)NC(C(=O)O)C(O)c1ccccc1 (stereo unspecified)    > 100 µM
CN=C(N)/N=C(\N)Nc1cc2ccccc2c2ccccc12    32.9 µM

Provide reported TGI for each item, in the same order as listed.
1. CC(C)[Si](OC1=C(c2ccccc2)C(NC(=O)/C=C/c2ccc([N+](=O)[O-])cc2)CCC1)(C(C)C)C(C)C (stereo unspecified)
2. O=C(CN1C(=O)S/C(=C\C(Cl)=C\c2ccccc2)C1=O)NCCc1ccc(O)cc1
3. Cc1c(NC(=O)c2cc([N+](=O)[O-])cc([N+](=O)[O-])c2)c(=O)n(-c2ccccc2)n1C
4. CC(=O)N1CC(=O)NC1=S
5. COC(=O)C1=C(CS(=O)c2ccc([N+](=O)[O-])cc2[N+](=O)[O-])ON(C)C1c1ccccc1 (stereo unspecified)
6. CNC(=O)NC(CCCCNC(=O)OCc1ccccc1)C(=O)OCc1ccccc1 (stereo unspecified)

Result:
1: > 100 µM; 2: > 100 µM; 3: > 100 µM; 4: > 100 µM; 5: > 100 µM; 6: > 100 µM

Provide reported TGI for each item, in the same order as listed.
1. COC(=O)C1(Cc2cccc(C)c2)Cc2c(C)cccc2C1=O (stereo unspecified)
2. CC1OC(OC2C(CO)OC(O[C@H]3CC[C@@]4(C)C(=CC[C@H]5[C@@H]6C[C@@H]7O[C@](O)(CC[C@H](CO)COC8OC(CO)C(O)C(O)C8O)[C@@H](C)[C@@H]7[C@@]6(C)CC[C@@H]54)C3)C(OC3OC(C)C(O)C(O)C3O)C2O)C(O)C(O)C1O (stereo partly specified)

Result:
["> 100 µM", "> 100 µM"]

====

Tested on: HCT-15 colon
experimental.details: NCI tumour cell line growth inhibition, 48 h
Would you kindly list TGI for each of these compounds?

CC(=O)OC[C@@]1(C)[C@@H]2[C@@H]3[C@@]4(CO[C@]3(C)C(=O)[C@@]3(O)C[C@H](C)[C@H](OC(C)=O)[C@@H]3[C@H]4OC(C)=O)[C@H](OC(=O)c3ccccc3)C[C@@H]21    > 100 µM
CC1OC(OC2C(CO)OC(O[C@H]3CC[C@@]4(C)C(=CC[C@H]5[C@@H]6C[C@@H]7O[C@](O)(CC[C@H](CO)COC8OC(CO)C(O)C(O)C8O)[C@@H](C)[C@@H]7[C@@]6(C)CC[C@@H]54)C3)C(OC3OC(C)C(O)C(O)C3O)C2O)C(O)C(O)C1O (some centres undefined)    > 100 µM
NC(=O)CCC(NC(=O)Cc1ccccc1)C(=O)O (centres undefined) (tested in a mixture with another compound)    > 2470 µM

// switching to the query compound
Problem: Write down TGI measured for item CC(=O)O[C@H]1CC[C@@]2(C)C(=C[C@H](c3ccc(O)cc3)[C@H]3[C@@H]4CC[C@H](OC(C)=O)[C@@]4(C)CC[C@@H]32)C1
Result: 24.8 µM

====

Test system: CCRF-CEM leukemia
experimental.details: NCI tumour cell line growth inhibition, 48 h
experimental.endpoint: TGI

Provide reported TGI for each item, in the same order as listed.
1. COc1nc(N)nc2c1ncn2[C@@H]1O[C@H](CO)[C@@H](O)[C@@H]1O
2. NC(=NCCN1CCCCCCC1)NO
3. O=C(c1nc2ccc(Cl)cc2[nH]c1=O)C(O)c1ccc2c(c1)OCO2 (stereo not drawn)

Result:
["> 100 µM", "> 100 µM", "> 100 µM"]

====

Would you kindly list TGI for each of these molecules?
Test system: NCI-H522 lung
experimental.details: NCI tumour cell line growth inhibition, 48 h
Where a SMILES comes first, the peptide text is derived from it. [ ]: non-standard residue; d: D form. The star is where a group is joined. NMeF = CN[C@@H](Cc1ccccc1)C(=O)O; NMeV = CN[C@H](C(=O)O)C(C)C; Boc = CC(C)(C)OC(=O)*; OBn = c1ccc(CO*)cc1

Example cases with answers are listed next.
CCOC1(OCC)N=C(N)C2(C#N)C3(C(=O)N(C(C)C)N=C3C)C12C#N (stereo unspecified)    > 100 µM
NC(=O)CCC(CCC(N)=O)(CCC(N)=O)[N+](=O)[O-]    > 100 µM

Provide reported TGI for each item, in the same order as listed.
1. COc1ccc2oc(=O)c(-c3nc4ccccc4o3)cc2c1
2. CC(C)[Si](OC1=C(C(=O)N(C)c2ccccc2Cl)CCCCC1)(C(C)C)C(C)C
3. COC(=O)c1cnn2c1ccc1ccccc12
4. Oc1ccc(-c2cn3cc(Cl)sc3n2)cc1
5. CCCc1nc(NC#N)nc(C(=O)NC23CC4CC(CC(C4)C2)C3)c1C

Result:
1. > 100 µM
2. > 100 µM
3. > 100 µM
4. > 100 µM
5. > 100 µM

Provide reported TGI for each item, in the same order as listed.
1. C/C(=N/c1[nH]c(=O)cc2c1C(=O)CC2)N(C)C
2. Cc1c(-c2nnc(-c3ccc(F)cc3)o2)nnn1-c1ccnc2c(C(F)(F)F)cccc12

Result:
1: > 200 µM; 2: > 100 µM

Provide reported TGI for each item, in the same order as listed.
1. O=C1NC(c2c(Cl)cccc2Cl)Nc2ccccc21 (stereo unspecified)
2. CC(C)[C@@H](C(=O)N1CCC[C@H]1C(=O)OCc1ccccc1)N(C)C(=O)[C@H](C(C)C)N(C)C(=O)[C@H](Cc1ccccc1)N(C)C(=O)[C@H](NC(=O)OC(C)(C)C)C(C)C (Boc-[dV][NMeF][NMeV][NMeV]P-OBn)
3. C=C1CC2CC(=O)C(O)C(C1)C2 (stereo unspecified)
4. CCOC(=O)N/N=C(\Cc1ccc([N+](=O)[O-])cc1)OCC
5. COc1ccc(C(=O)C(C(=O)C(=O)NC2C3CC4CC(C3)CC2C4)c2ccc(OC)cc2)cc1 (stereo unspecified)
6. COc1ccc2c(c1)CCN1CCCc3ccc(OC)cc3C21 (stereo unspecified)
7. CCC1c2[nH]c3ccccc3c2C[C@H]2C(=O)N3CCC[C@H]3C(=O)N12 (stereo partly specified)

Result:
> 100 µM
> 50 µM
> 100 µM
> 100 µM
> 100 µM
> 100 µM
> 100 µM

Provide reported TGI for each item, in the same order as listed.
1. CCOC(=O)N1CCN(c2nc(C)n(-c3ccccc3)c(=S)c2C#N)CC1
2. CC(C)[Si](OC1=C(c2ccccc2)C(NC(=O)/C=C/c2ccc([N+](=O)[O-])cc2)CCC1)(C(C)C)C(C)C (stereo unspecified)
3. O=S(=O)(CCNCc1ccc(-c2ccc3ncnc(Nc4ccc(OCc5cccc(F)c5)c(Cl)c4)c3c2)o1)c1ccccc1
4. CCOC(=O)C(=O)Nc1c(C)cccc1C(C)C
5. O=C(c1nc2ccc(Cl)cc2[nH]c1=O)C(O)c1ccc2c(c1)OCO2 (stereo unspecified)

Result:
["> 66.3 µM", "> 100 µM", "> 25 µM", "> 100 µM", "> 100 µM"]

====

Tested on: SNB-19 CNS
experimental.details: NCI tumour cell line growth inhibition, 48 h
experimental.endpoint: TGI

C=C(C)[C@@H]1CCC2=C[C@H](OC2=O)[C@@]2(C)C[C@@H]2C(=O)/C=C(/C)C(=O)[C@H]1OC(C)=O    > 73.7 µM
O=S(=O)(CCNCc1ccc(-c2ccc3ncnc(Nc4ccc(OCc5cccc(F)c5)c(Cl)c4)c3c2)o1)c1ccccc1    > 25 µM
CC(=O)N1CC(=O)NC1=S    > 100 µM

Provide reported TGI for each item, in the same order as listed.
1. CCCCCCCCCCCCCCCCCC(=O)OCC(COC1OC(CS(=O)(=O)O)C(O)C(O)C1O)OC(=O)CCCCCCCCCCCCCCCCC (stereo unspecified)
2. COC(=O)c1ccc(COC(=O)N2C=CCC2C(=O)O)cc1 (stereo unspecified)
3. COc1cccc(Cn2c(-c3nonc3NC(C)=O)nc3ccccc32)c1

Result:
1: > 100 µM; 2: > 100 µM; 3: > 100 µM

====

Tested on: K-562 leukemia
experimental.details: NCI tumour cell line growth inhibition, 48 h
Would you kindly list TGI for each of these molecules?

Example cases with answers are listed next.
N#CCCSC(=S)C1CCCC1=N (stereo not drawn)    > 100 µM
CCC1c2[nH]c3ccccc3c2C[C@H]2C(=O)NC(CCCCNC(=O)OC(C)(C)C)C(=O)N12 (stereo partly drawn)    > 100 µM

Problem: Write down TGI measured for item CCCC1=C(C(=O)OCC)C(c2ccccc2OC)C(C#N)=C(N)O1 (stereo not drawn)
Result: > 100 µM
